The following binders are listed with their measured M07e-hPD-1 cell proliferation ratio (%) at 0.001 nM values.
target: human PD-1 (human, UniProt Q15116 25-288); assay: cell-based or functional assay
Sequence (Q15116 25-288 limits assumed): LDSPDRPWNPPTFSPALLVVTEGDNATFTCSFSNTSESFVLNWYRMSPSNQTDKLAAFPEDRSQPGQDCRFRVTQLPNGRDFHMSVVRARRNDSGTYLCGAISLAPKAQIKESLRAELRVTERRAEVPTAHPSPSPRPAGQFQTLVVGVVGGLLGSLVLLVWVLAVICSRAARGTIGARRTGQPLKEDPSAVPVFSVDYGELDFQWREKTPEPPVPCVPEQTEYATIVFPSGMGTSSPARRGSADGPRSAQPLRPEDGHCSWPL
measurement-type: M07e-hPD-1 cell proliferation ratio (%) at 0.001 nM

A-N88D-M28 (Fc fusion, not shown: IgG1 hinge (C220S) + Fc Knob chain as in A-N88D; IgG1 hinge (C220S) + Fc Hole chain as in A-N88D) chain (part 1 of 2): EVQLVESGGGLVQPGGSLRLSCAASGLTFSSYSMSWYRQAPGKGRELVAIISGSGGITHYADSVKGRFTISRDNAKNTLYLQMRSLRAEDTAVYYCRAVSDWQDYWGQGTQVTVSS chain (part 2 of 2): GGGGSGGGGSGGGGSAPASSSTKKTQLQLEHLLLDLQMILQGISNYKNPKLTRMLTAKFYMPKKATELKHLQCLEEELKPLEEVLQGAQSKNFHLRPRDLISDINVIVLELKGSETTFMCEYADETATIVEFLNRWITFAQSIISTLT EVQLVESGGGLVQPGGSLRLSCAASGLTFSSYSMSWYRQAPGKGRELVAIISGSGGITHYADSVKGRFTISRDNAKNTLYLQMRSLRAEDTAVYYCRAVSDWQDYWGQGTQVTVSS
6.3
A-N88D-M26 (Fc fusion, not shown: IgG1 hinge (C220S) + Fc Knob chain as in A-N88D; IgG1 hinge (C220S) + Fc Hole chain as in A-N88D) chain (part 1 of 2): EVQLVESGGGLVQPGGSLRLSCAASGLTFSSYSMSWYRQAPGKGRELVAIISGSGGITHYVDSVKGRFTISRDNAKNTLYLQMRSLRAEDTAVYYCRAVSDWEDYWGQGTQVTVSS chain (part 2 of 2): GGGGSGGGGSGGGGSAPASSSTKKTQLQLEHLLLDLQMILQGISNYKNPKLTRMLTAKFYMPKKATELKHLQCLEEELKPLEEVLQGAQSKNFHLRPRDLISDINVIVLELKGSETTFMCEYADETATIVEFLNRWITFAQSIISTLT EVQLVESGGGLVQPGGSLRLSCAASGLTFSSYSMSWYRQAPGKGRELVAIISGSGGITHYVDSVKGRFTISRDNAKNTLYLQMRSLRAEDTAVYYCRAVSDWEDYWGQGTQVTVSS
4.8
